Data origin: patent US12358890B2

Biological target: CYP3A4 (Homo sapiens)
Construct: cryopreserved human microsomes (pooled donors) are divided on a 48 well collagen coated plate; from tissue; host or cells: cryopreserved human microsomes (pooled donors)
Sequence (P08684 whole entry): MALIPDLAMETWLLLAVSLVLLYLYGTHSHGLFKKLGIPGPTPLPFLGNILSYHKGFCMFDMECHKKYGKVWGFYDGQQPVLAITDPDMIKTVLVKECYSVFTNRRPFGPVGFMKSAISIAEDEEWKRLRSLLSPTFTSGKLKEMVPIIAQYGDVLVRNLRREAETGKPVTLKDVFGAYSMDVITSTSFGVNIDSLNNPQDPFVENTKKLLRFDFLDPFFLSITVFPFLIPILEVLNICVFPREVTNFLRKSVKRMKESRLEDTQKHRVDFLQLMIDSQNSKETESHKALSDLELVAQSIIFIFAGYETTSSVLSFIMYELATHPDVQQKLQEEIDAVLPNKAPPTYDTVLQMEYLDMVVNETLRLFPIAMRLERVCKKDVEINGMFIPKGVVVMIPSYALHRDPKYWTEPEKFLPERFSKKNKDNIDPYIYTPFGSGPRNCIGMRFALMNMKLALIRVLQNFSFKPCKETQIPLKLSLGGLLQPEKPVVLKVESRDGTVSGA
Test: In vitro assessment of CYP3A4 inhibition potential using cryopreserved human microsomes (midazolam substrate)
Format: in vitro ADME
Conditions: cryopreserved human microsomes (pooled donors), probe midazolam 2.5 μM, compound at 20 μM, read-out: percentage of inhibition of CYP3A4
Protocol: The objective of the human microsome assay is to characterize the inhibition potential of Compound of formula (I) by measuring the CYP3A4 activities after its co-incubation with midazolam, a specific CYP3A4 substrate. To this aim, cryopreserved human microsomes (pooled donors) are divided on a 48 well collagen coated plate so that the final concentration is 0.25 mg/ml. […] The results are expressed as % of inhibition. […]
ENDPOINT: inhibition at 15 min, 20 μM

{"columns": ["LINE_NOTATION", "READOUT_VALUE"],
 "data": [
  ["C[C@H]1c2cccc([C@](C)(O)CF)c2CCN1C(=O)Cc1c(Cl)cnc(CO)c1Cl", "~28%"]
]}
